# MEASURED_ON: UniProtKB P11511
# Sequence (P11511 whole entry): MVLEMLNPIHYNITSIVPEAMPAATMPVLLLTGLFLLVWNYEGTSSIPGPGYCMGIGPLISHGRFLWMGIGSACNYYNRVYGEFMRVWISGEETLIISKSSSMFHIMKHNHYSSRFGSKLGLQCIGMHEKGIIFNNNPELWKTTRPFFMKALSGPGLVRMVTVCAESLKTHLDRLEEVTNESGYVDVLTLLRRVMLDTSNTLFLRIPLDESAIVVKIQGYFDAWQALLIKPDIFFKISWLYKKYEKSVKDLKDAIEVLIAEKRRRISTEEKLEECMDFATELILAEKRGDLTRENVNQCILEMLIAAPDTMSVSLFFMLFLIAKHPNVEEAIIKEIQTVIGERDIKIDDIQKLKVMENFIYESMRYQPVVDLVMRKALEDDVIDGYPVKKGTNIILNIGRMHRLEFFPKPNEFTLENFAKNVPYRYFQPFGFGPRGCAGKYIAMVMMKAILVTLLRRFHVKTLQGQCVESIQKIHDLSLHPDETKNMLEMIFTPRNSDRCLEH
# ASSAY_PROTOCOL: Percent inhibition of human placental Cytochrome P450 19A1 at 3:1 inhibitor: androstenedione (0.7 uM) ratio
Binarize Inhibition at 70%; below is satisfied, at or above is not satisfied.

COMPOUND: CC12CCC3C(CC(=O)C4=CC(=O)CCC43C)C1CCC2=O (centres undefined)
CLASS_NAME: not satisfied
--
COMPOUND: C[C@]12CCC(=O)C(O)=C1CC[C@@H]1[C@@H]2CC[C@]2(C)C(=O)CC[C@@H]12
CLASS_NAME: not satisfied
--
COMPOUND: CC12CCC3C(C=CC4=C(O)C(=O)CCC43C)C1CCC2=O (centres undefined)
CLASS_NAME: satisfied
--
COMPOUND: C[C@]12C=CC(=O)C=C1C=C[C@@H]1[C@@H]2CC[C@]2(C)C(=O)CC[C@@H]12
CLASS_NAME: not satisfied
--
COMPOUND: CC(=O)OC1=C2CCC3C4CCC(=O)C4(C)CCC3C2(C)CCC1=O (centres undefined)
CLASS_NAME: not satisfied
--
COMPOUND: CC12CCC3C(CCC4=C(Cl)C(=O)CCC43C)C1CCC2=O (centres undefined)
CLASS_NAME: satisfied
--
COMPOUND: COC1=C2CCC3C4CCC(=O)C4(C)CCC3C2(C)CCC1=O (centres undefined)
CLASS_NAME: satisfied
--
COMPOUND: CC12C=CC(=O)C(O)=C1CCC1C2CCC2(C)C(=O)CCC12 (centres undefined)
CLASS_NAME: not satisfied
